# Experiment description: Solubilities of molsidomine in various solvents (saturation at 32° C., HPLC)
# Format: physicochemical
# Experimental setup: pH 6.8, aqueous buffer; Phosphate buffer pH 6.80; read-out: Solubilities
Readout name: solubility (mg/mL)
Report only the number, with the unit mg/mL understood.

[in] Look at this molecule and give its reported solubility. CCOC(=O)[N-]c1cn(N2CCOCC2)n[o+]1 [Molsidomine]
[out] 12.1

* * *

# Experiment description: Solubilities of molsidomine in various solvents (saturation at 32° C., HPLC)
# Type: physicochemical
# Experimental setup: organic solvent or mixture; propylene glycol and propylene glycol with 10% of oleic acid, lauryl alcohol or PGML; read-out: solubility
Readout name: solubility

[in] Look at this molecule and give its reported solubility. CCOC(=O)[N-]c1cn(N2CCOCC2)n[o+]1 [Molsidomine]
[out] ~90 mg/mL
